Catalogue of IC50, ELK1-luciferase reporter (hGFRAL/hRET) values
- subject.of.test: T1, human GFRAL expressed on cells (human, UniProt Q6UXV0 20-394)
- T1 sequence: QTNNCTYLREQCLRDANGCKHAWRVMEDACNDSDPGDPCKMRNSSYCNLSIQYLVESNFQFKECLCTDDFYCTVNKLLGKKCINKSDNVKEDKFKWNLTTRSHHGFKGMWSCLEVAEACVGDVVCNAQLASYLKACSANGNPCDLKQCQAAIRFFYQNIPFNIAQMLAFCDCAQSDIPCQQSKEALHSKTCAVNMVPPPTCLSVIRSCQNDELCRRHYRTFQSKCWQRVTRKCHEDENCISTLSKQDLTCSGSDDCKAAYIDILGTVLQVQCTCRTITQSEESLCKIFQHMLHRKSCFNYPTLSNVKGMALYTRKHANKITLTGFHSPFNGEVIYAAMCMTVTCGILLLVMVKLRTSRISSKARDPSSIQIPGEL
- test.summary: cell-based or functional assay
# output: bare number, implied unit nM

Look over these answered cases.
binder	unit.of.measurement	assay.result
antibody designated 6N16 (antibody, V domains shown, mouse hybridoma monoclonal) VH: QVQLQQSGSELVKPGTSMKLSCKASGYTFTSYNINWVRLRPEQGLEWIGWIFPGDDSIKYNENFRGKATLTTDKSSSTAYMHLSRLTSDDSAVYFCARSGIFYGNNFAYWGQGTLVTVSA VL: DVVMTQAPLILSVTIGQPASISCKSSQSLLDGDGETYLSWLLQRPGQSPKRLIYLVSKLDSGVPDRFTGSGSGTDFTLKISRVEAEDLGVYYCCQSTHFPLTFGAGTKLELK	nM	1.62
antibody designated 19K19 (antibody, V domains shown, mouse hybridoma monoclonal) VH: QVQLQQSGPDLVKPGASVKISCKASGYAFTSYWMNWVKQRPGKGLEWIGRIYPGDGDTNYNGKFKGKATLTADKSSSTAYMQLSSLTSEDSAVYFCARAYLLRLRRTGYYAMDYWGQGTSVTVSS VL: DVVLTQTPLSLPVNIGDQASISCKSTKSLLNSDEFTYLDWYLQKPGQSPQLLIYLVSNRFSGVPDRFSGSGSGTDFTLKISRVEAEDLGVYYCFQSNYLPYTFGGGTKLEIK	nM	3.88
antibody designated 5F12 (antibody, V domains shown, mouse hybridoma monoclonal; also called 5F12 Hybridoma) VH: QVQLKQSGTELVRPGASVKLSCKASGYTFTDYYINWVKQRPGQGLEWIARIYPGNGNTYHNEKFKGKATLTAEKSSSTAYMQLSSLTSEDSAVYFCAREGLYYDYDRYFDYWGQGTALTVSS VL: NIVLTQSPASLAVSLGQRATISCRASESVDTYGNSFMHWYQQKPGQPPKLLIYLASNLESGVPARFSGSGSRTDFTLTIDPVEADDAATYYCHQNNEDPPAFGGGTKLEIK	nM	0.834

IC50, ELK1-luciferase reporter (hGFRAL/hRET) reading for antibody designated 2B11 (antibody, V domains shown, mouse hybridoma monoclonal) VH: DVQLQESGPGLVKPSQSLSLTCSVTGYSITSGYYWNWIRQFPGNKLEWMGHIANDGSNYYNPFLKHRVSITRDTSKNQFFLKLNSVTIQDTATYYCARGGSYFDYVDYWGQGTTLTVSS VL: DIQMTQTTSSLSASLGDRVTINCRASQDISNYLNWYQQKPDGTVKLLIYYTSRLHSGVPSRFSGSGSGTDYSLTITNLEQEDIATYFCQQGNTLPFTFGSGTKLEIK : 7.9
